- TARGET UNDER TEST: Adenosine receptor A2a (Homo sapiens)
- Sequence (P29274 whole entry): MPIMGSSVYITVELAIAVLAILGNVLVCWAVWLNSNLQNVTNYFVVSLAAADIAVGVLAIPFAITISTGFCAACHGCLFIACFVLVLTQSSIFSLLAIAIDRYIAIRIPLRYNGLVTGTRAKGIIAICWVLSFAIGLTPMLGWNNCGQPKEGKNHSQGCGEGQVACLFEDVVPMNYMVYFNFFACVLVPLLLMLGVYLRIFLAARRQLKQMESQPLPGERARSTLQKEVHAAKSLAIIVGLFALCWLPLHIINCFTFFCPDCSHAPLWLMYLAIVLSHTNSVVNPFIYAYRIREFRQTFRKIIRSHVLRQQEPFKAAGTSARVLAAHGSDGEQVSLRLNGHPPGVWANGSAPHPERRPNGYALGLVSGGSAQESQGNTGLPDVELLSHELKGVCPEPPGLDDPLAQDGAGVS
- TEST PROTOCOL: Displacement of [3H]NECA from human adenosine A2A receptor expressed in CHO cells at 10 uM
- Assay type: cell-based
PROPERTY NAME: inhibition (%)

Answered cases to consult:
{"ITEM SMILES": "CCCOc1cc(NC(C)=O)nc(SCc2ccccc2)n1", "inhibition (%)": 23}
{"ITEM SMILES": "CCCSc1nc(NC(C)=O)cc(OCc2ccc(OC)cc2)n1", "inhibition (%)": 47}
{"ITEM SMILES": "CCCSc1nc(NC(C)=O)cc(OCC2CCCCC2)n1", "inhibition (%)": 33}
{"ITEM SMILES": "CCCSc1nc(NC(C)=O)cc(OCc2ccc(Cl)cc2)n1", "inhibition (%)": 43}
{"ITEM SMILES": "CCCCSc1nc(NC(C)=O)cc(OCc2ccc(Cl)cc2)n1", "inhibition (%)": 26}

P = CCCSc1nc(NC(=O)CC)cc(OC)n1
Q = CCCSc1nc(NC(C)=O)cc(OCc2ccccc2)n1
Inquiry: I'm curious, which of these has a smaller inhibition number: P or Q ? API: response body contains the label of the selected item.
Reply text: P
(P: 4%, Q: 36%)
